Reference for the values: patent US10654808B2

// endpoint IC50 / system VEGFR2 (Homo sapiens, UniProt P35968)

Please review the following examples before continuing.
Compound | IC50
COc1cc2nccc(Oc3ccc(NC(=S)NC4CC4)c(Cl)c3)c2cc1C(=O)NC1CC1 [Example 54] | 0.05 to 0.2 µM
COc1cc2nccc(Oc3ccc(NC(=S)NCc4ccncc4)c(Cl)c3)c2cc1C(N)=O [Example 5] | 0.05 to 0.2 µM
COc1cc2nccc(Oc3ccc(Nc4c(Nc5cccc(C(F)(F)F)c5)c(=O)c4=O)c(Cl)c3)c2cc1C(N)=O [Example 155] | 0.2 to 1 µM
COc1cc2nccc(OC3CC(NC(=O)NC4CC4)C3)c2cc1C(N)=O (stereo not shown) [Example 129] | 0.2 to 1 µM
COc1cc2nccc(Oc3ccc(N4CCNC4=O)c(Cl)c3)c2cc1C(N)=O [Example 165] | 0.2 to 1 µM
CCNC(=O)c1coc2cc(Oc3ccnc4cc(-c5cn(C)cn5)ccc34)ccc12 [Example 222] | < 0.05 µM
COc1cc2nccc(Oc3ccc(Nc4c(NCc5cccnc5)c(=O)c4=O)c(Cl)c3)c2cc1C(N)=O [Example 149] | 0.2 to 1 µM
CCC1NC(=O)c2cc3c(Oc4ccc(NC(=S)NC5CC5)c(Cl)c4)ccnc3cc2O1 (stereo not shown) [Example 173] | 0.2 to 1 µM
CCNC(=O)Nc1ccc(Oc2ccnc3cc(-c4cn(C)cn4)ccc23)cc1Cl [Example 220] | < 0.05 µM
COc1cc2nccc(Oc3ccc4c(C(=O)N5CCCC5)coc4c3)c2cc1C(N)=O [Example 206] | 0.2 to 1 µM

COc1cc2nccc(Oc3ccc4oc(C(=O)N5CC(F)(F)C5)cc4c3)c2cc1C(N)=O [Example 190] has a reported IC50 of 0.2 to 1 µM

COc1cc2nccc(Oc3ccc(CC(=O)N4CCCC4)cc3)c2cc1C(N)=O [Example 176] has a reported IC50 of 0.2 to 1 µM

COc1cc2nccc(Oc3ccc(NC(=S)NC4CCOCC4)c(Cl)c3)c2cc1C(N)=O [Example 15] has a reported IC50 of 0.2 to 1 µM

COc1cc2nccc(Oc3ccc(NC(=S)N4CC(O)C4)c(Cl)c3)c2cc1C(N)=O [Example 69] has a reported IC50 of 0.05 to 0.2 µM

CCCNc1c(Nc2ccc(Oc3ccnc4cc(OC)c(C(N)=O)cc34)cc2Cl)c(=O)c1=O [Example 140] has a reported IC50 of 0.2 to 1 µM

[2H]C([2H])([2H])NC(=O)c1coc2cc(Oc3ccnc4cc(-c5cn(C)cn5)ccc34)ccc12 [Example 224] has a reported IC50 of < 0.05 µM
